Cited source: ChEMBL document CHEMBL4400581

Test system: HeLa
assayOverview: Cytotoxicity against human HeLa cells by MTT assay
Assay type: functional
quantityMeasured: CC50 (nM)
Numbers only, in nM.

Here's what some known entries look like.
• C1CCC(N2CN3c4nonc4N4CN(C5CCCC5)CN5c6nonc6N(C2)C3C45)C1 (stereo unspecified) = 980
• C1CCCC(N2CN3c4nonc4N4CN(C5CCCCCC5)CN5c6nonc6N(C2)C3C45)CC1 (stereo unspecified) = 1210
• C1CCC(N2CN3c4nonc4N4CN(C5CCCCC5)CN5c6nonc6N(C2)C3C45)CC1 (stereo unspecified) = 1040
• C1CCCC(N2CN3c4nonc4N4CN(C5CCCCCCC5)CN5c6nonc6N(C2)C3C45)CCC1 (stereo unspecified) = 1370
• C1CC2CC1CC2N1CN2c3nonc3N3CN(C4CC5CCC4C5)CN4c5nonc5N(C1)C2C34 (stereo unspecified) = 320

Consider the record given below.
Kindly state the measured CC50 obtained for C1CC1N1CN2c3nonc3N3CN(C4CC4)CN4c5nonc5N(C1)C2C34 (stereo unspecified) with HeLa.
420
